These measurements were taken from patent US20240075137A1.

Molecular target: T1, PVRIG (FACS-based competition assay of FIGS. 7 and 15) (Homo sapiens, UniProt Q6DKI7)
T1 construct: made because the format of the assay is only described in U.S. Ser. No. 15/048,967; also called human PVRIG
T1 sequence (receptor, looked up): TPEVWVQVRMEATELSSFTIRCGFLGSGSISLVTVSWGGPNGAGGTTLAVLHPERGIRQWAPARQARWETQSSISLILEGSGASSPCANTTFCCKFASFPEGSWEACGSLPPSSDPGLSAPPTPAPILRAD
Assay: FACS-based competition assay of PVRIG blocking; format and competitor not given
Parameter: IC50. Scope: all listed entries.

Example entries begin here.
>>> result("CHA.7.506 (antibody, V domains shown) VH: QVQLQQSGAELTRPGASVNLSCKASGYTFTSYWMQWVKQRPGQGLEWIGAIYPGDGDTRFNQKFKGKATLTADESSSTAYMQLSSLASEDSAVYYCATYYRYDDYWGQGTTLTVSS VL: QIVLTQSPAIMSASPGEKVTMTCSASSSVSYMHWYQQKSGTSPKRWIYDTSKLASGVPTRFSGSGSGTSYSLTISSMEAEDAATYYCQQWSSNPYTFGGGTKLEIK")
"31.6 nM"
>>> result("CHA.7.534 (antibody, V domains shown) VH: EVQLQQSGAELVKPGASVRLSCTASGFSIRDTYIHWVKQRPEQGLDWIGKIDPANGKSEYDPKFQGRATMTTDTSSNTAYLQLSSLTSEDTAVYYCTRYGYYPYFDVWGAGTTVTVFS VL: SIVMTQTPKFLLVSAGDRVAITCKASQSVRHDVVWYQQKPGQSPKLLIYYASSRYTGVPDRFTGSGYGTDFTFTISTVQAEDLALYFCLQDFSSPWTFGGGTKLEIK")
"181 nM"
>>> result("CHA.7.522 (antibody, V domains shown) VH: QVQLQQPGSELVRPGTSVKLSCKASGYTFTSYWVHWVRQRHGQGLEWIGNVYPGSGSTNYDEKFKSKGTLTVDTSSSTAYMHLSSLTSEDSAVYYCTRGVLRFPLDYWGQGTTLTVSS VL: DIVMTQAAPSVPVTPGESVSISCRSSKSLLHSNGNTYLYWFLQRPGQSPHLLIYRMSNLASGVPDRFSGSGSGTAFTLRISRVEAEDVGVYYCMQHLEYPLTFGAGTKLELK")
"50.5 nM"
>>> result("CHA.7.537 (antibody, V domains shown) VH: QVQLKESGPGLVAPSQSLSITCTVSGFSLIGHGVNWIRQPPGKGLEWLGVIWGDGNTDYNSALKSRLSISKDNSKSQVFLKMNSLQTDDTARYFCAVNSAMDYWGQGTAVTVSS VL: NIVMTQSPKSMSMSVGERVTLNCTASENVASFVSWYQQKPEQSPKLLIYGTSNRYTGVPDRFTGSGSATDFTLTISSVQAEDLGDYHCGQSYNYPFTFGSGTKLEIE")
"39 nM"

Recorded IC50 for CHA.7.547 (antibody, V domains shown) VH: QIQLVQSGPDLKKPGETVKISCKASGYTFTTYGMSWVKQAPGRGLKWMGWINTYSGVSTFPDDFKGRFAFSLETSASTAYLQINNLKNEDSATYFCARLGMGSTTGAGYFDVWGTGTTVTVSS VL: ENVLTQSPAIMSASLGEKVTLSCRASSSVNYMYWYQQKSDASPKLWIYYTSNLAPGVPARFSGSGSGNSYSLTISSVEGEDAATYYCQQFTSSPWTFGGGTKLEIK , please? 27.9 nM
